Quick reference: TRF signal for 2.4 ug/mL Fab of the listed items.
Target: trypsin
Test: TRF ELISA, Fab on biotinylated trypsin

Previously resolved entries follow.
KB_A01 Fab (Fab, V domains shown) VH: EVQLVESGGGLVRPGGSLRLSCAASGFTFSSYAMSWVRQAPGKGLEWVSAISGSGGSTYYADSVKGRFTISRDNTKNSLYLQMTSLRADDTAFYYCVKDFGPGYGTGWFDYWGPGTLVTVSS VL: YLNWYQQKPGKAPKLLIYAAEVCPRILMRCKQDSDCLAGCVCGPNGFCGGTSGVPSRFSGSRSGTEFTLTISSLQPEDFATYYCQKVDDYPLTFGGGTKVEIKR : 16600
KB_B01 Fab (Fab, V domains shown) VH: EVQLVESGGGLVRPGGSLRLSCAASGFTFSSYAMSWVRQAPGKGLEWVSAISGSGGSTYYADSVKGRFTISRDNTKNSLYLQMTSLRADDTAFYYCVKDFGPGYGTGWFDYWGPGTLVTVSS VL: AVNWYQQLPGKAPKLLIYAAAGCPRILMRCKQDSDCLAGCVCGPNGFCGTRSGVSDRFSGSKSGTSASLAISGLRSEDEADYYCAAWDDSLRAYVFGTGTKLTVLG : 153000

Consider now this further binder.
[in] Using the record for KB_C10 Fab (Fab, V domains shown) VH: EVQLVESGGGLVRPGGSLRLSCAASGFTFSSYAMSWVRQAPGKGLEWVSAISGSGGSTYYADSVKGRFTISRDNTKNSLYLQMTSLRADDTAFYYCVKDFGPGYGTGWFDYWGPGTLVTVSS VL: AVNWYQQLPGKAPKLLIYAAGPCPRILMRCKQDSDCLAGCVCGPNGFCGADSGVSDRFSGSKSGTSASLAITGLQAEDEGDYYCAAWDDSLNGLVFGGGTKVTVLG , report its TRF signal for 2.4 ug/mL Fab.
[out] 146000

Reference for the values: patent US20260043020A1
